Every entry's value here was drawn from paper PMC7986984.

Assay type: in vivo, mice
conditions used: Plasma; Chronic BDPP; over 24 h
Marks after values point to notes of the source that are not given here.
Recorded AUC, one value per entry.
measurement type: AUC

>  <molecule>
Oc1ccc(/C=C/c2cc(O)cc(O)c2)cc1 [RSV, t-Resveratrol (−)]

>  <result>
51313.0* ng/mL*h

$$$$
>  <molecule>
Oc1cc(O)c2c(c1)OC(c1ccc(O)c(O)c1)C(O)C2 (stereo not drawn)

>  <result>
80.6** ng/mL*h

$$$$
>  <molecule>
COc1cc(/C=C/C(=O)O)ccc1O

>  <result>
320.9** ng/mL*h

$$$$
